System: E28 (patient-derived glioblastoma stem cells of classical subtype);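 note: nuclei counted by high-content imaging of Hoechst-stained cells in laminin-coated 384-well plates, relative to 0.1% DMSO vehicle wells, with staurosporine as cell-death control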
protocol-details: surviving fraction (nuclei count normalised to DMSO); higher = more cells surviving (less toxic)
test-parameters: 12.34567901 nM; exposure time: 72 h
Would you mind labelling by surviving fraction? At or over 1 is 1, under is 0.

Example results:
O=C(O)c1ccc(-c2c[nH]c3ncc(-c4ccccc4)cc23)cc1C1CCCC1
0
C[C@@H](O)[C@H]1C(=O)N2C(C(=O)O)=C(S[C@@H]3CN[C@H](C(=O)N(C)C)C3)[C@H](C)[C@H]12 [Meropenem]
1
Nc1ncn([C@@H]2O[C@H](CO)[C@@H](O)[C@H]2O)c(=O)n1 [5-azacytidine]
1
Cc1ccc(NC(=O)c2ccc3c(c2)OCCO3)cc1NC(=O)c1ccc2nc(OCCN3CCCC3)ccc2c1
0
COC(=O)Nc1nc2cc(C(=O)c3cccs3)ccc2[nH]1 [Nocodazole]
0

Next item in the queue.
query: Reported surviving fraction at or above 1? Cc1[nH]nc(C(F)(F)F)c1Cc1sc2c(c1C(=O)N1C[C@](C)(O)CO1)c(=O)n(C)c(=O)n2C(C)C [AZD3965]
result: 0

Origin of measurements: the supplement of paper PMC13207355
